# TARGET_OF_ASSAY: FRET-based glucose-detection molecule D241, glucose-binding region derived from E. coli mg1B (galactose binding protein), 16 = Q (Escherichia coli, UniProt P0AEE5, F39Q)
# Sequence (P0AEE5 24-332 F39Q limits assumed): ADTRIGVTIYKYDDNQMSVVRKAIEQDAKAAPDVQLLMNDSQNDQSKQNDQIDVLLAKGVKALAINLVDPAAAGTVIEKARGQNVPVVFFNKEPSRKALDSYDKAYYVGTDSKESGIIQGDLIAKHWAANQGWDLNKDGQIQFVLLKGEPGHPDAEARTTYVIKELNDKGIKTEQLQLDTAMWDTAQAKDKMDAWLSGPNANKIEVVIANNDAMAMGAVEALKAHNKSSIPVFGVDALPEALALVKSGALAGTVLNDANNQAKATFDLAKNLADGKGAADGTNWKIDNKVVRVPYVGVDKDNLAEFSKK
# METHOD: Kd of residue 16 variant at room temperature (D241)
READOUT_TYPE: Kd (µM)
# number only, unit µM dropped from output

Lab note: OC[C@H]1OC(O)[C@H](O)[C@@H](O)[C@@H]1O (stereo partly shown) gave Kd of 300
